Assay: Aqueous solubility
Assay type: physicochemical
Settings: water, not marked as free base, read-out: Aqueous Solubility
Where a name gives a salt, the structure may show the parent alone.
Each entry below lists one item and its recorded solubility value.

| compound | solubility |
| --- | --- |
| Cl.Cl.O=c1[nH]c2cc3cc(OCCCS(=O)(=O)N4CCN(CC5CCCCC5)CC4)ccc3nc2[nH]1 [Compound 10g] | > 20 mg/mL |
| Cl.O=c1[nH]c2cc3cc(OCCCS(=O)(=O)N4CCN(c5nc6ccccc6s5)CC4)ccc3nc2[nH]1 [Compound 10i] | ~1 mg/mL |
| O=c1[nH]c2cc3cc(OCCCS(=O)(=O)N4CCN(CCc5ccccc5)CC4)ccc3nc2[nH]1 [Compound 10k, dihydrochloride] | < 10 mg/mL |
| Cl.Cl.O=c1[nH]c2cc3cc(OCCCS(=O)(=O)N4CCN(c5nc6ccccc6o5)CC4)ccc3nc2[nH]1 [Compound 10h] | > 20 mg/mL |
| Cl.Cl.O=c1[nH]c2cc3cc(OCCCS(=O)(=O)N4CCN(Cc5ccccc5)CC4)ccc3nc2[nH]1 [Compound 10c] | > 20 mg/mL |
| CCC(CC)CN1CCN(S(=O)(=O)CCCOc2ccc3nc4[nH]c(=O)[nH]c4cc3c2)CC1 [Compound 10l, dihydrochloride] | > 10 mg/mL |
| O=c1[nH]c2cc3cc(OCCCS(=O)(=O)N4CCNCC4)ccc3nc2[nH]1 [Compound 10a, dihydrochloride] | > 20 mg/mL |
